- System: HepG2 human liver-derived cells
- assay: in vitro cytotoxicity assay in HepG2 cells
- Type: cell-based
endpoint: in vitro cytotoxicity (in words)

In: What does the data say about its in vitro cytotoxicity (in words)? Entry: CNc1nccc(-c2c(-c3ccc(F)cc3)nc3cc(NCCN(C)C)ccn23)n1 [Compound 27]
Out: non-cytotoxic

In: // same read-out, input: CN(C)Cc1ccn2c(-c3ccnc(Nc4ccc(N5CCNCC5)cc4)n3)c(C3CC3)nc2c1 [Compound 13]
Out: non-cytotoxic

* * *

- System: Plasmodium falciparum
- assay: blood stage hypoxanthine incorporation (HXI) cell assay
- Format: cell-based
- stated-conditions: blood stage hypoxanthine incorporation cell assay, read-out: Pf HXI pEC50 (converted)
Quick list: EC50 per entry.
Please give a number only; it is taken to be in nM.

In: Entry CN1CCN(c2ccn3c(-c4ccnc(N)n4)c(-c4ccc(F)cc4)nc3c2)CC1 [Compound 22] : reported EC50 = ?
Out: 263

In: Could you do the same for CN(C)Cc1ccn2c(-c3ccnc(Nc4ccc(N5CCN(C)CC5)cc4)n3)c(C3CC3)nc2c1 [Compound 12] , please?
Out: 112

In: // next record CNc1nccc(-c2c(-c3ccc(F)cc3)nc3cc(NCCN(C)C)ccn23)n1 [Compound 27]
Out: 525

Next, consider the following compound.
In: For CN(C)Cc1ccn2c(-c3ccnc(Nc4ccccn4)n3)c(C3CC3)nc2c1 [Compound 11] , what is its reported EC50?
Out: 1740

* * *

Listed compounds paired with reported mLogD
- assay: Measured logD (shake flask)
- Format: physicochemical
- stated-conditions: octanol/PBS
Hey, just send me the number, nothing else.

In: Value lookup for mLogD; key = CN(C)CCCNc1ccc2nc(-c3ccc(F)cc3)c(-c3ccnc(N)n3)n2c1
Out: 2.2

In: Another compound: CN1CCN(c2ccc3nc(-c4ccc(F)cc4)c(-c4ccnc(N)n4)n3c2)CC1
Out: 2.8

In: Another: CN(C)CCNc1ccn2c(-c3ccnc(N)n3)c(-c3ccc(F)cc3)nc2c1
Out: 2.1

In: Now consider CN(C)CCc1ccn2c(-c3ccnc(N)n3)c(-c3ccc(F)cc3)nc2c1 and answer again.
Out: 1.9

In: Request: CN(C)Cc1ccn2c(-c3ccnc(Nc4ccc(N5CCNCC5)cc4)n3)c(C3CC3)nc2c1
Out: 1.5

In: Another compound: CN(C)Cc1ccn2c(-c3ccnc(N)n3)c(C3CC3)nc2c1
Out: 1.7

In: Next record, please: CN(C)Cc1ccn2c(-c3ccnc(Nc4ccccn4)n3)c(C3CC3)nc2c1
Out: 2.5

In: Now the compound CN1CCC(Nc2ccn3c(-c4ccnc(N)n4)c(-c4ccc(F)cc4)nc3c2)C1 (stereo not drawn)
Out: 2.1

New cases:
In: Which mLogD is listed for CNc1nccc(-c2c(-c3ccc(F)cc3)nc3cc(NCCN(C)C)ccn23)n1 ?
Out: 2.2

In: What do you get for CN(C)Cc1ccc2nc(-c3ccc(F)cc3)c(-c3ccnc(N)n3)n2c1 ?
Out: 2.3

In: Item: CN(C)Cc1ccn2c(-c3ccnc(Nc4ccc(N5CCN(C)CC5)cc4)n3)c(C3CC3)nc2c1
Out: 2.1

In: Same read-out for CN(C)CCOc1ccn2c(-c3ccnc(N)n3)c(-c3ccc(F)cc3)nc2c1 ?
Out: 2.2

In: Please do the same for CN1CCC(Nc2ccn3c(-c4ccnc(N)n4)c(-c4ccc(F)cc4)nc3c2)CC1 as well.
Out: 2.2

In: Try this compound too: CC(C)Nc1nccc(-c2c(C3CC3)nc3cc(CN(C)C)ccn23)n1
Out: 3.0

In: Now the same for CN1CCN(c2ccn3c(-c4ccnc(N)n4)c(-c4ccc(F)cc4)nc3c2)CC1
Out: 3.1

* * *

- tgt: PfPKG (Plasmodium falciparum, UniProt Q8I719)
- Sequence (Q8I719 whole entry): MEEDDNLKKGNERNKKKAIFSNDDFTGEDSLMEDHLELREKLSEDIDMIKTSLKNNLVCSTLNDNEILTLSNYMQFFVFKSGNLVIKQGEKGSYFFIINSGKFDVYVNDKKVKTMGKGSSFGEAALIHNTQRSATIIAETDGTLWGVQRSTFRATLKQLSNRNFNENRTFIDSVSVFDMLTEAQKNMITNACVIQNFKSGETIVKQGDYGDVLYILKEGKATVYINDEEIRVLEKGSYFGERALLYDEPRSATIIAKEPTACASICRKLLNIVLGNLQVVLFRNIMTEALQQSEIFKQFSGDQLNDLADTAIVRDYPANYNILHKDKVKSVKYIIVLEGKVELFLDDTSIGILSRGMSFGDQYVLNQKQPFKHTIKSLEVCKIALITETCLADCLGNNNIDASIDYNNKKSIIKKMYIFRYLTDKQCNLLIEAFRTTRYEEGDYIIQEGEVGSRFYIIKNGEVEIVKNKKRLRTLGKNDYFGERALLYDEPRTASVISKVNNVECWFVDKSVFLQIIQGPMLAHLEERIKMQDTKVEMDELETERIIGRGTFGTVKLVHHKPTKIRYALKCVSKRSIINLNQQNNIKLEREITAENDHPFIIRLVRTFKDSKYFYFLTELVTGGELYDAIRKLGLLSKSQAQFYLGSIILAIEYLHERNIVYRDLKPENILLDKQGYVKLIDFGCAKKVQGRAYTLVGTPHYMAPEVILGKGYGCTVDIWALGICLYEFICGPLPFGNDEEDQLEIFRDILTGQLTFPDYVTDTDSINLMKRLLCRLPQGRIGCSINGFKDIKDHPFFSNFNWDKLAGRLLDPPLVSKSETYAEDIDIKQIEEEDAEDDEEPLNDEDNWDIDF
- assay: biochemical
- stated-conditions: PfPKG pIC50 minus measured logD
label 1 means recorded LLE (pIC50 – mLogD) is 6 or above; label 0 means it is below 6.

Example entries and their recorded answers appear below.
In: Exam item: decide whether the reported LLE (pIC50 – mLogD) for CN1CCN(c2ccn3c(-c4ccnc(N)n4)c(-c4ccc(F)cc4)nc3c2)CC1 is at least 6.
Out: label 0

In: Also need CN(C)CCNc1ccn2c(-c3ccnc(N)n3)c(-c3ccc(F)cc3)nc2c1 , thanks.
Out: label 1

In: One more compound: CN(C)Cc1ccn2c(-c3ccnc(Nc4ccc(N5CCNCC5)cc4)n3)c(C3CC3)nc2c1
Out: label 1

In: Likewise for CC(C)Nc1nccc(-c2c(C3CC3)nc3cc(CN(C)C)ccn23)n1 ?
Out: label 0

In: Same lookup for CN(C)CCCNc1ccc2nc(-c3ccc(F)cc3)c(-c3ccnc(N)n3)n2c1 , please.
Out: label 0

In: For CN(C)Cc1ccn2c(-c3ccnc(N)n3)c(C3CC3)nc2c1 then?
Out: label 0

Read the next record carefully.
In: In plain terms: is recorded LLE (pIC50 – mLogD) at least 6 for CN(C)CCc1ccn2c(-c3ccnc(N)n3)c(-c3ccc(F)cc3)nc2c1 ?
Out: label 0

* * *

- assay: mouse liver microsomal turnover
- Type: in vitro ADME
- stated-conditions: % remaining after 30 min incubation with mouse liver microsomes
endpoint: MLM % rem
The answer consists of two parts: a number and, after it, its unit.

Guide cases for MLM % rem, answers given:
In: Name the reported MLM % rem value associated with the compound CN(C)CCc1ccn2c(-c3ccnc(N)n3)c(-c3ccc(F)cc3)nc2c1
Out: 65%

In: Here is the next compound: CN1CCC(Nc2ccn3c(-c4ccnc(N)n4)c(-c4ccc(F)cc4)nc3c2)CC1
Out: 88%

In: Next record, please: CN(C)CCOc1ccn2c(-c3ccnc(N)n3)c(-c3ccc(F)cc3)nc2c1
Out: 54%

In: CN(C)Cc1ccn2c(-c3ccnc(Nc4ccc(N5CCNCC5)cc4)n3)c(C3CC3)nc2c1 ?
Out: 53%

Next:
In: MLM % rem for CN(C)CCNc1ccn2c(-c3ccnc(N)n3)c(-c3ccc(F)cc3)nc2c1 ?
Out: 80%

In: Item: CNc1nccc(-c2c(-c3ccc(F)cc3)nc3cc(NCCN(C)C)ccn23)n1
Out: 93%

In: Further, for CN1CCN(c2ccc(Nc3nccc(-c4c(-c5ccc(F)cc5)nc5ccccn45)n3)cc2)CC1 ?
Out: 65%

* * *

- tgt: UniProt:Q8I719
- assay: biochemical
- stated-conditions: biochemical assay; read-out: PfPKG pIC50 (converted)
endpoint: IC50 (nM)
API: value field is a number in nM; no unit string.

In: Given the entry CN1CCC(Nc2ccn3c(-c4ccnc(N)n4)c(-c4ccc(F)cc4)nc3c2)C1 (stereo not drawn) [Compound 20] , report its measured IC50.
Out: 8.51

In: Do the same for CN1CCC(Nc2ccn3c(-c4ccnc(N)n4)c(-c4ccc(F)cc4)nc3c2)CC1 [Compound 24] please
Out: 3.63

In: Same read-out for CN(C)CCOc1ccn2c(-c3ccnc(N)n3)c(-c3ccc(F)cc3)nc2c1 [Compound 25] ?
Out: 7.41

In: // same read-out, input: CN(C)Cc1ccn2c(-c3ccnc(Nc4ccccn4)n3)c(C3CC3)nc2c1 [Compound 11]
Out: 8.71

* * *

- System: Plasmodium falciparum
- assay: blood stage hypoxanthine incorporation (HXI) cell assay
- Type: cell-based
- stated-conditions: blood stage hypoxanthine incorporation cell assay, read-out: Pf HXI pEC50 (converted)
Listed below: EC50 values for each entry.
Unit nM implied. Number only.

Example entries begin here.
In: Report EC50 for CN(C)CCc1ccn2c(-c3ccnc(N)n3)c(-c3ccc(F)cc3)nc2c1 [Compound 29] please.
Out: 1000

In: Repeat for the following molecule: CN(C)CCOc1ccn2c(-c3ccnc(N)n3)c(-c3ccc(F)cc3)nc2c1 [Compound 25]
Out: 813

In: Moving on to CN1CCC(Nc2ccn3c(-c4ccnc(N)n4)c(-c4ccc(F)cc4)nc3c2)C1 (stereo not drawn) [Compound 20]
Out: 851

In: And then CN1CCC(Nc2ccn3c(-c4ccnc(N)n4)c(-c4ccc(F)cc4)nc3c2)CC1 [Compound 24] , what is it?
Out: 347

In: Try the molecule CN(C)Cc1ccn2c(-c3ccnc(Nc4ccc(N5CCNCC5)cc4)n3)c(C3CC3)nc2c1 [Compound 13]
Out: 200

Could you now look at the following molecule, please?
In: Can you share its EC50? I mean this molecule: CN1CCN(c2ccc3nc(-c4ccc(F)cc4)c(-c4ccnc(N)n4)n3c2)CC1 [Compound 23]
Out: 871

* * *

- assay: Measured logD (shake flask)
- Format: physicochemical
- stated-conditions: octanol/phosphate buffered saline (PBS), read-out: mLogD
endpoint: logD at 12 h
A bare number is all that is needed in reply.

In: Could you share which logD at 12 h value was measured for CN(C)Cc1cccn2c(-c3ccnc(N)n3)c(-c3ccc(F)cc3)nc12 ?
Out: 1.6
